Reference source: patent US9029508

# ASSAY SYSTEM: HGF (human, UniProt P14210)
# Sequence (P14210 32-728): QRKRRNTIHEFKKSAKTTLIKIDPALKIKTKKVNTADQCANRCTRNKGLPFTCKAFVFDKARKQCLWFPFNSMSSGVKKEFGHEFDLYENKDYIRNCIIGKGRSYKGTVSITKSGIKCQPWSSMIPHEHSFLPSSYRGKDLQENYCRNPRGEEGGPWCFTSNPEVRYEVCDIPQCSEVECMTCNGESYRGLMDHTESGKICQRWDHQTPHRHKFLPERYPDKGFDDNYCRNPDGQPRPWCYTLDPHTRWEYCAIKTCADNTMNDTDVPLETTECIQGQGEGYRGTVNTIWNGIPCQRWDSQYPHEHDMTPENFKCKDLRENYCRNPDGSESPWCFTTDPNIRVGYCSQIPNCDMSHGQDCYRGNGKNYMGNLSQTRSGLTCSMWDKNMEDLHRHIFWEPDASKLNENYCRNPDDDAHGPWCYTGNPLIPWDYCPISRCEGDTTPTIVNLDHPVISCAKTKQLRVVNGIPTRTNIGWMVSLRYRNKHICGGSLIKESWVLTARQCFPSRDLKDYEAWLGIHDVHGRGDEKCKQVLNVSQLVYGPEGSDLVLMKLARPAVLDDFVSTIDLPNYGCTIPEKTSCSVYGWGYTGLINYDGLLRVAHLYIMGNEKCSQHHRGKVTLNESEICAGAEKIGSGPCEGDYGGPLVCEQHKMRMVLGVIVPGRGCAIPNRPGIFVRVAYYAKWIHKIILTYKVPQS
# ASSAY REMARKS: competition

BINDER: AB012 (antibody, V domains shown) VH: QVQLVESGGGLVKPGGSLRLSCAASGFTFSDYYMSWIRQAPGKGLEWVSYISSSGSTIYYADSVKGRFTISRDNAKNSLYLQMNSLRAEDTAVYYCARDEYNSGWYVLFDYWGQGTLVTVSS VL: DIQMTQSPSSVSASVGDRVTITCRASQGISSWLAWYQQKPGKAPNLLIYEASSLQSGVPSRFGGSGSGTDFTLTISSLQPEDFATYYCQQANGFPWTFGQGTKVEIKR
IC50, pM: 180
